Reference source: patent US20240262804A1

TEST SYSTEM: bovine cardiac myosin (Bos taurus (Bovine))
Sequence (Q9BE39 whole entry): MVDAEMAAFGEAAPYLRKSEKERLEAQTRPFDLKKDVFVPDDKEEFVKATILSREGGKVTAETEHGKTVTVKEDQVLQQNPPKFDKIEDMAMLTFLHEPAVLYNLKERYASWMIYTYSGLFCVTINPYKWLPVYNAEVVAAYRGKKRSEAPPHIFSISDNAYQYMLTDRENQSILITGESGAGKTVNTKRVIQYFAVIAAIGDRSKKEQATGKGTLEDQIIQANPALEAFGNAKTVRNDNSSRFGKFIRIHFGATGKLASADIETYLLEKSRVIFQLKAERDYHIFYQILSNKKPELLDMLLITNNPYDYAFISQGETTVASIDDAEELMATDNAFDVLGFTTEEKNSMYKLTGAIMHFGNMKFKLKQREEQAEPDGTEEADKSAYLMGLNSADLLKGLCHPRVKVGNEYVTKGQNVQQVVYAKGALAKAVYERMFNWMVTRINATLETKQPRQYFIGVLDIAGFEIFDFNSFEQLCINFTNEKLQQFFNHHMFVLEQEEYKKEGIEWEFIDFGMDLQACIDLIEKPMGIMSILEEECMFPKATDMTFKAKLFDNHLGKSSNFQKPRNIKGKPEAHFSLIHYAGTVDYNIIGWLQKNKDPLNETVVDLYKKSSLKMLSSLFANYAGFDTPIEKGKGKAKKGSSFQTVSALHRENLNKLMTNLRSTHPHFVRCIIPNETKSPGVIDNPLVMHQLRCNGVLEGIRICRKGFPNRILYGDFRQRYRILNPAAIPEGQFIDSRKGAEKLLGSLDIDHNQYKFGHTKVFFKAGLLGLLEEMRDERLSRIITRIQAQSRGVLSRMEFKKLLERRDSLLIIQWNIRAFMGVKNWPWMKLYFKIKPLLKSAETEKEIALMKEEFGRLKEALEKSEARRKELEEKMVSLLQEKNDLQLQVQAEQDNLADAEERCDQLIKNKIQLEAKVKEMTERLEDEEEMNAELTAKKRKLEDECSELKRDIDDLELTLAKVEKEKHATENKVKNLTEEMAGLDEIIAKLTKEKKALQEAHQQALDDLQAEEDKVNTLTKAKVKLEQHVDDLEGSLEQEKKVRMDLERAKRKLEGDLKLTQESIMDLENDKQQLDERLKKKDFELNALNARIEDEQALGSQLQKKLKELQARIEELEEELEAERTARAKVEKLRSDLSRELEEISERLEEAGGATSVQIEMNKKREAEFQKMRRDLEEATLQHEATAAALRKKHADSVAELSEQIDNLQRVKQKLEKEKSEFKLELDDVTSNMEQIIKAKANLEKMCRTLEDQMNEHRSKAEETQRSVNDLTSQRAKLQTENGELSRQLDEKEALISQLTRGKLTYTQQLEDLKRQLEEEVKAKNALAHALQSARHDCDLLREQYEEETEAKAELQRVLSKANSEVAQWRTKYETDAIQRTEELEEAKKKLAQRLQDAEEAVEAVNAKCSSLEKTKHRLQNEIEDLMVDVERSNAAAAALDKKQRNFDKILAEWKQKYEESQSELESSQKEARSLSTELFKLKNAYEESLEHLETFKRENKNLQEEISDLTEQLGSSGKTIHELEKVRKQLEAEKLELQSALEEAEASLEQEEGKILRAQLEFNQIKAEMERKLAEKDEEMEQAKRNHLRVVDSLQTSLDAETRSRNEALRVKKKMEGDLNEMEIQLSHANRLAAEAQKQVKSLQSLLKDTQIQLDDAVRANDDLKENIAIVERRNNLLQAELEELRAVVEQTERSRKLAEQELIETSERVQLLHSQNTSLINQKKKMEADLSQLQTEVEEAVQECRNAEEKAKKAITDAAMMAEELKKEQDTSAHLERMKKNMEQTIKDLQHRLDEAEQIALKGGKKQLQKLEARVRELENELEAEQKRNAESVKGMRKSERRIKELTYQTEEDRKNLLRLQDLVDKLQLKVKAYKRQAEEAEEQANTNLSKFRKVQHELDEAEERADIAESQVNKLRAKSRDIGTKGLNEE
Sequence (P85100 whole entry partner): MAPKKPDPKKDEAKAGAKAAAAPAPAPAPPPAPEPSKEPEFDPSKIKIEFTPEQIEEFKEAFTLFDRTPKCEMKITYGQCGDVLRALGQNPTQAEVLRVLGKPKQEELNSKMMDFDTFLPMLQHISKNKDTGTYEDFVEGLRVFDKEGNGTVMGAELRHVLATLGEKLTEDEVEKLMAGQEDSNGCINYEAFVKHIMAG
Sequence (Q3SZE5 whole entry partner): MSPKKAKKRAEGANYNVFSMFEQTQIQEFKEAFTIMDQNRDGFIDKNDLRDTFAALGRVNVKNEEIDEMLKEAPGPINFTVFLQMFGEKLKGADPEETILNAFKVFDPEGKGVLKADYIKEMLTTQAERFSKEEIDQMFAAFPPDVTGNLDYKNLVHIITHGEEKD
TEST NAME: Myosin inhibitory potency: PK/LDH-coupled ATPase assay on bovine skinned cardiac myofibrils
PARTICULARS: pCa=6.25, 50 μM ATP, 25° C., read-out: myosin inhibition activity IC50
Below is a list of entries, each paired with its recorded IC50 value.

MOLECULE | READOUT UNITS | IC50
COCCN1CCC(n2c(=O)nc(N[C@@H](C)C3CCCCC3)[nH]c2=O)CC1 | nM | 3860
C[C@H](Nc1nc(=O)n(C2CCC(F)(F)CC2)c(=O)[nH]1)C1CCCCC1 | nM | 4630
CC(Nc1nc(=O)n(C2CCNCC2)c(=O)[nH]1)c1ccc(C(F)(F)F)cc1 (centres unmarked) | nM | 5150
CC(C)[C@H](O)c1cccc([C@H](C)Nc2nc(=O)n(C3CCOCC3)c(=O)[nH]2)c1 | nM | 790
O=c1nc(N[C@H](c2cccc(Br)c2)C(F)F)[nH]c(=O)n1C1CCOCC1 | nM | 550
CC(C)c1ccc([C@H](C)Nc2nc(=O)n(C3CCOCC3)c(=O)[nH]2)cc1 | nM | 850
C[C@H](Nc1nc(=O)n(C2CCOCC2)c(=O)[nH]1)c1cc(C(F)(F)F)cc(C(F)(F)F)c1 | nM | 2670
Cc1cc([C@H](C)Nc2nc(=O)n([C@@H]3CCOC[C@@H]3F)c(=O)[nH]2)ccc1F | nM | 860
